These entries and their values trace back to ChEMBL document CHEMBL6177945.

assay-name: Induction of type-1 ROS generation in PBS assessed as increase in superoxide anion radical by measuring increase in DHR123 fluorescence intensity at 10 uM irradiated with 450 to 800 nm 40.8 mW cm^-2 light up to 10 mins by DHR123 fluorescence based analysis
Assay type: functional
The source made the active and inactive calls. The calls are words filed in the database; no cut-off is given here.

[
  {
    "item-smiles": "COc1ccc(C2=N/[N+](=C\\c3c(C)c4n(c3C)[B-](F)(F)[N+]3=C(C)C(I)=C(C)C3=C4c3ccccc3)[B-](F)(F)O2)cc1",
    "Activity": "Active"
  },
  {
    "item-smiles": "CC1=C(I)C(C)=[N+]2C1=C(c1ccccc1)c1c(C)c(/C=[N+]3\\N=C(c4ccc([N+](=O)[O-])cc4)O[B-]3(F)F)c(C)n1[B-]2(F)F",
    "Activity": "Active"
  },
  {
    "item-smiles": "CC1=C(I)C(C)=[N+]2C1=C(c1ccccc1)c1c(C)c(/C=[N+]3\\N=C(c4ccccc4)O[B-]3(F)F)c(C)n1[B-]2(F)F",
    "Activity": "Active"
  }
]
